This listing pairs molecules with measured IC50.
- measurementTarget: recombinant CETP (Homo sapiens, UniProt P11597)
- Sequence (P11597 18-493): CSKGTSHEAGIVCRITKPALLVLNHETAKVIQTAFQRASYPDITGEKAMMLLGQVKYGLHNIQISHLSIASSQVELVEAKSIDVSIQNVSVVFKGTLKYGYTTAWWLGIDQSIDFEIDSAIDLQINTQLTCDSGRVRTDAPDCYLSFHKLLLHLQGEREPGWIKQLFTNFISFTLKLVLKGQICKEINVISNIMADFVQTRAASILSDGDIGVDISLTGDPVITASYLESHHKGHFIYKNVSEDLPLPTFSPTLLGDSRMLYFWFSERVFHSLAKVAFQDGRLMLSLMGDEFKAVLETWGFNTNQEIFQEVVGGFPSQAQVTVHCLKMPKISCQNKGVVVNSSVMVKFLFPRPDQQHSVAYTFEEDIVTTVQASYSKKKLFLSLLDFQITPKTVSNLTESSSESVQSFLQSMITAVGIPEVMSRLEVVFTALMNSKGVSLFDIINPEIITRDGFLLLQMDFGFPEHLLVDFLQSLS
- measurementProtocol: RTA assay using recombinant CETP (2% RTA)
- Assay type: biochemical
- experimentalContext: 2% human serum
Give the number; nM is assumed, so skip it.

# example entries with known answers
CC1(O)CN(c2cccc(C3(Cc4cccc(OC(F)(F)F)c4)CN(C[C@@H](O)C(F)(F)F)c4ccccc43)c2)C1 (stereo partly drawn) : 1230
O[C@H](CN1CC(Cc2cccc(OC(F)(F)F)c2)(c2ccc(F)c(Cl)c2)c2ccccc21)C(F)(F)F (stereo partly drawn) : 883

Now for the molecule whose IC50 we want.
For Cc1ccc(C2(Cc3cccc(OC(F)(F)F)c3)CN(C[C@@H](O)C(F)(F)F)c3ccccc32)cc1-c1ccc(C(=O)O)cc1 (stereo partly drawn) , what is its reported IC50?
1510

---

- measurementTarget: recombinant CETP (Homo sapiens)
- measurementProtocol: RTA assay using recombinant CETP (2% RTA)
- experimentalContext: 2% human serum
pIC50: −log10 of the molar value.
Classify by measured pIC50: yes if it is equal to or exceeds 7, no if it is smaller.

As a guide, the following entries are already answered.
O[C@H](CN1CC(Cc2cccc(OC(F)(F)F)c2)(c2ccc(F)c(C(F)(F)F)c2)c2ccccc21)C(F)(F)F (stereo partly drawn) : no
COC(=O)c1cccc(CC2(c3cccc(OC(F)(F)F)c3)CN(C[C@@H](O)C(F)(F)F)c3ccccc32)c1 (stereo partly drawn) : no
C[C@@H]1CN(c2cccc(CC3(c4cccc(OC(F)(F)F)c4)CN(C[C@@H](O)C(F)(F)F)c4ccccc43)c2)CCO1 (stereo partly drawn) : no

Now consider a different compound.
Dear colleague, could you confirm whether CC(C)Oc1cc(C2(Cc3cccc(OC(F)(F)F)c3)CN(C[C@@H](O)C(F)(F)F)c3ccccc32)ccn1 (stereo partly drawn) has pIC50 at or above 7?
yes
